All figures here come from PubChem BioAssay (NCI).

# assay-info: NCI Yeast Anticancer Drug Screen. Data for the bub3 strain (AID 167)
# condition-description: S. cerevisiae bub3 mutant strain, at 1.2 µM, stronger effect = higher value
# Description: Growth inhibition of yeast strains with defined genetic alterations is measured as a screen for potential anti-cancer activity. Selected strains with alterations in DNA damage repair or cell cycle control were exposed to compounds and growth inhibition was measured relative to vehicle treated controls. The strain used in this assay is bub3
The panel holds about 79,000 compounds, 15% with a hit somewhere; the sample as a whole holds those more often. Calls of active or inactive are those of the source. No stated cut-off is given here; in the data, active means growth inhibition above about 70%; inactive means the rest.
Answer each item with its documented growth inhibition.

Indicate the recorded growth inhibition value for this molecule: CNCC(C)CNC
-11% (inactive)

Indicate the recorded growth inhibition value for this molecule: CCOC(=O)C(Cc1c2ccccc2cc2ccccc12)(NC(C)=O)C(=O)OCC
-2% (inactive)

Return value of growth inhibition for input CC(C)OP(=O)(OC(C)C)/C(Cl)=N/Nc1ccc([N+](=O)[O-])cc1 , no commentary.
-4% (inactive)

State, in one line, measured growth inhibition of COc1cc2c(cc1OC)[C@@H](Nc1ccc(C#N)cc1)C1COC(=O)[C@@H]1C2c1cc(OC)c(O)c(OC)c1 (some centres not stated)
-32% (inactive)

Fill in growth inhibition for record O=C(NCCNCCNC(=O)c1cc(-c2ccccc2)nc2ccccc12)c1cc(-c2ccccc2)nc2ccccc12
-2% (inactive)

Using known records, supply growth inhibition for COc1cccc(/C=C2\S/C(=N/Nc3nc(-c4ccc([N+](=O)[O-])cc4)cs3)NC2=O)c1O
7% (inactive)

Tell me growth inhibition reported for Cc1cccc2c(NCCCN(C)C)c3c([N+](=O)[O-])ccc(C)c3nc12
-8% (inactive)

Give the measured growth inhibition for CCC1(O)C(=O)OCc2c1cc1n(c2=O)Cc2cc3c(N)cccc3nc2-1 (configuration not stated)
-37% (inactive)

Output growth inhibition of O=C(C#Cc1ccccc1)Nc1ccccc1
-10% (inactive)

In one line, give reported growth inhibition of the entry COc1ccccc1/C=C\C(=O)C1COCN1 (configuration not stated) .
0% (inactive)

Complete the entry with growth inhibition for CC1=COC2=C(C)C(=O)C(=O)c3c(C)ccc1c32
67% (inactive)

Output growth inhibition of Cc1c2cc[n+](CCO)cc2c(C)c2c1[nH]c1ccc(O)cc12
6% (inactive)

Tell me growth inhibition reported for C[N+](C)([O-])CCCNc1c2ccccc2nc2cccc([N+](=O)[O-])c12
-25% (inactive)

Determine its reported growth inhibition: CCC[CH2][Ge]([CH2]CCC)([CH2]CCC)[O]C(=O)C(O)c1ccccc1 (configuration not stated)
-2% (inactive)

Please give measured growth inhibition of the following entry: O=C(Oc1ccc([N+](=O)[O-])cc1)c1ccc([N+](=O)[O-])cc1
3% (inactive)

Complete the entry with growth inhibition for O=[N+]([O-])/C=C/c1cc2ccc3ccccc3c2[nH]1
12% (inactive)

Specify growth inhibition for NC(CS)C(=O)NCCNc1ccc(NCCNC(=O)C(N)CS)c2c1C(=O)c1c(O)ccc(O)c1C2=O (configuration not stated) and stop.
-29% (inactive)

Please list growth inhibition recorded for the molecule CC1(C)C(O)OC(O)C1(C)C (configuration not stated)
-7% (inactive)

Answer with the recorded growth inhibition for the molecule listed here: CC(C)S(=O)(=O)/C=C\S(=O)(=O)C(C)C
-4% (inactive)

Report growth inhibition for O=C(O)CNC(c1ccccc1)(c1ccccc1)c1ccccc1
-5% (inactive)

Consider the molecule CCOP(=O)(OCC)/C(C#N)=C/c1cccc(Oc2ccccc2)c1 . State its measured growth inhibition.
-11% (inactive)

Please indicate growth inhibition recorded for NCCOc1ccc(/C(=C(/Cl)c2ccccc2)c2ccccc2)cc1
0% (inactive)

----------
# assay-info: NCI Yeast Anticancer Drug Screen. Data for the rad50 strain (AID 155);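 further: 0% = growth of vehicle-only cultures of the same strain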
# condition-description: S. cerevisiae rad50 strain growth inhibition; at 100.0 µM
Compounds without any hit were thinned out: in the full panel of roughly 79,000, 15% have a hit. Active and inactive are the calls of the source. Rule as the data show it: active = growth inhibition above about 70%; inactive = the rest.
Returns: one label drawn from active, inactive

Assay outcome for CC(C)(C)c1ccc2c(c1)C(=O)c1ccccc1C2=O : what was it?
inactive

Query: recorded result category for O=c1c2ccccc2nc(-c2cccc([N+](=O)[O-])c2)n1O in this test
active

Write down the call the test reported for this compound. Item: CCC[CH2][Ge]([CH2]CCC)([CH2]CCC)[O]C(=O)C(O)c1ccccc1 (stereo not given)
active

Please indicate how the test categorized COc1ccc(C(OCC2OC(n3cnc4c(=O)n(Cc5ccccc5[N+](=O)[O-])nnc43)C(O)C2O)(c2ccccc2)c2ccc(OC)cc2)cc1 (stereo not given) .
inactive

I'd appreciate the recorded outcome for NCCCSc1ccccc1 from this test.
inactive

----------
Exercise: for every item that follows, state its recorded growth inhibition.
# assay-info: NCI Yeast Anticancer Drug Screen. Data for the rad50 strain (AID 155);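 further: 0% = growth of vehicle-only cultures of the same strain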
# condition-description: S. cerevisiae rad50 strain growth inhibition; at 5.0 µM (retest, dose inferred, filed as 0.5); stronger effect = higher value
About 79,000 compounds went through this panel and 15% of them were active in at least one assay; those are over-represented in the sample as a whole.
Please give a number only; it is taken to be in %.

Annotate the molecule S=C1C(=Nc2ccccc2)N(c2ccccc2)/C(=N\c2ccccn2)N1c1ccccc1 with its measured growth inhibition.
41

Tell me growth inhibition reported for CC(=O)/C=C/c1cc([N+](=O)[O-])ccc1O
7

Determine from records and report growth inhibition for COc1ccc(N=c2cc(-c3ccccc3)oc3ccccc23)cc1
11

Report growth inhibition, nothing else, for this molecule: CC(C)OC(=O)NNc1cccc(Cl)c1
13

Look up and state reported growth inhibition for O=C(c1ccccc1)[C@H]1Nc2ccc(Cl)cc2[C@H]2OCCC[C@@H]12
7

Return the recorded growth inhibition value; entry: COc1cc(NCCCCNCC(C)(C)C)c2ncccc2c1
11

Consider the molecule COC1/C=C\C=C(/C)C(=O)NC2=CC(=O)C(=O)C(=C2O)CC(C)CC(OC)C(O)C(C)/C=C(\C)C1OC(N)=O (stereo not drawn) and give its recorded growth inhibition.
-17

Look up and state reported growth inhibition for CCC(/C=C/c1ccccc1)=N\Nc1ccc(Cl)c(Cl)c1
7

For CC(C(=O)N1C(=O)N(C(=O)C(C)C(O)c2ccccc2)C2CCCCC21)C(O)c1ccccc1 (stereo not drawn) , write its growth inhibition.
-5

Return growth inhibition for the following molecule: COC1=CCC23C(=O)C=CC(=O)C2(C1)C(=O)c1ccccc1C3=O (stereo not drawn)
19

Output growth inhibition of CCC(C)(C)c1ccc(Oc2ccccc2)c(N)c1
42

Fill in reported growth inhibition for this entry: Cc1cccc(C)c1NC(=O)CCC(=O)C(C)C(=O)c1ccc(O)cc1 (stereo not drawn)
1

Specify growth inhibition for O=C1c2ccccc2-c2ccc(N=Cc3ccccc3)cc21 and stop.
8

Provide one value: measured growth inhibition of N#C/C(=C\NC(=S)Nc1ccc(S(N)(=O)=O)cc1)C(=O)c1ccc2ccccc2c1
57

Answer with the recorded growth inhibition for the molecule listed here: O=C1Oc2ccccc2C(=O)/C1=C/N1C(=O)N/C(=C\c2ccccc2Br)C1=O
-6

Give growth inhibition for COc1ccc(C(=O)/C=C\c2ccc(Cl)c(Cl)c2)cc1
53

// Input: CCN1CCC(O)(c2ccc(Oc3ccc(Cl)cc3)cc2)C(C(=O)c2ccc(Oc3ccc(Cl)cc3)cc2)C1 (stereo not drawn) . Output its growth inhibition only.
51

# return recorded growth inhibition for entry Cc1cc(C)c2[s+]snc2c1
-5

Please list growth inhibition recorded for the molecule CN(C)CCNCCCNc1c2ccccc2nc2cccc([N+](=O)[O-])c12
17

Tell us which growth inhibition value is on record for Oc1c2c(c(O)c3ccccc13)C1(N=N2)c2ccccc2Oc2ccccc21
46

Return value of growth inhibition for input CC1=C(C)C(=O)C2=C(OCCO2)C1=O , no commentary.
-23

Please look at this molecule and report its growth inhibition: Cc1cccc2c(NCCCN(C)C)c3c([N+](=O)[O-])ccc(C)c3nc12
1

Return reported growth inhibition. Input molecule: O=C(NCCNCCNC(=O)c1cc(-c2ccccc2)nc2ccccc12)c1cc(-c2ccccc2)nc2ccccc12
-11

Return the recorded growth inhibition value; entry: O=C1c2ccccc2-c2cc3ccccc3c(=O)n21
1

Return growth inhibition (reported value) for this molecule: O=c1cccccc1[O-].O=c1cccccc1[O-].O=c1cccccc1[O-].[Eu+3]
38

Assign growth inhibition to the following record: NC(=O)NC1C(c2ccccc2)=C1c1ccccc1
-19

Output measured growth inhibition for this item: O=C1c2cccc3cccc(c23)C(=O)N1O
13

Give growth inhibition for the following molecule: Cc1cc(O)c(C(C)C)cc1SC#N
91

Output growth inhibition of CCCCCCCCCCCCCCCCCCNC(=S)/N=C/c1c(O)c2ccccc2[nH]c1=O
-12

// fetch growth inhibition given entry Cc1nc2sc3c(c2c(=O)o1)CCCC3
18

Determine its reported growth inhibition: c1ccc([P+](CCN2Cc3ccccc3C2)(c2ccccc2)c2ccccc2)cc1
64

Please report growth inhibition for the following molecule: Cc1ccc(C)c(C(=N)c2ccccc2Cc2ccccc2)c1
60

Indicate the recorded growth inhibition value for this molecule: C[n+]1c(/C=C/c2ccc(/C=N/NC(=O)c3ccc(C(=O)N/N=C/c4ccc(/C=C/c5cn6ccccc6[n+]5C)cc4)cc3)cc2)cn2ccccc21
79

Read off the recorded growth inhibition for CC1=NN(C(=O)c2ccccc2O)C(=O)/C1=C/c1ccco1
11

Determine from records and report growth inhibition for COc1ccc(C(C)c2cc3c(cc2OCC(C)=O)OCO3)cc1 (stereo not drawn)
1

For the molecule COc1ccc(C(OCC2OC(n3cnc4c(=O)n(Cc5ccccc5[N+](=O)[O-])nnc43)C(O)C2O)(c2ccccc2)c2ccc(OC)cc2)cc1 (stereo not drawn) , give its reported growth inhibition.
17

// Input: O=[N+]([O-])c1cc(Cl)ccc1S(=O)(=O)c1ccc(Cl)cc1[N+](=O)[O-] . Output its growth inhibition only.
14

Return reported growth inhibition. Input molecule: CCCC/C=C1\CCC(CN2CCCC2)C1=O (stereo not drawn)
40

Let me know recorded growth inhibition for Nc1ccc2c(c1)C(=O)c1c(F)cccc1-2 , thanks.
-129

Output measured growth inhibition for this item: CCCCN(CCCC)c1ccc(N=Nc2ccc(S(=O)(=O)O)cc2)cc1
63

Output growth inhibition of CC1=NN(C(=O)CC(=O)NC(=O)/C=C\c2ccccc2)C(=O)C1N=Nc1ccc([N+](=O)[O-])cc1 (stereo not drawn)
-1

Output growth inhibition of Cc1ccc(S(=O)(=O)NC(=O)C2C(=O)CC3(CCCCC3)CC2=O)cc1
10

Look up and state reported growth inhibition for CC1(C2CC2)C(C#N)(C#N)C1(C#N)C#N
-106
